Origin of the recorded values: patent US11866405B2

target: human recombinant IRAK4 protein (Homo sapiens (Human), UniProt Q9NWZ3); assay: IRAK4 enzyme assay (mass spectrometry readout); settings: 3 mM ATP, 0.2 nM enzyme; geometric mean of at least n=2, * single experiment
Sequence (Q9NWZ3 whole entry): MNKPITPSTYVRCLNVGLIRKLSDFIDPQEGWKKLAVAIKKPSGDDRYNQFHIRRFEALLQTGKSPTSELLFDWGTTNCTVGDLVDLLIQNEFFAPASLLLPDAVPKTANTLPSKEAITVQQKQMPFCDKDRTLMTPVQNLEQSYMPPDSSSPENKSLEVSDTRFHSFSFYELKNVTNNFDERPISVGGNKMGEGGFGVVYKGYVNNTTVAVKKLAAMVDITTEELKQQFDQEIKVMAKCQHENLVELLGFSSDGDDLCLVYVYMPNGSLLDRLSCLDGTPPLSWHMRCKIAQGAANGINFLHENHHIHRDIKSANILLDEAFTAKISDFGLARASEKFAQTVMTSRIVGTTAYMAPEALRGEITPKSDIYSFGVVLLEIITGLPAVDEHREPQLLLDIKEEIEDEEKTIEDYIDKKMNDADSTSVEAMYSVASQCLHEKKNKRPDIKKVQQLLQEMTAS
As shown below, each of these compounds has a reported IC50 value.

compound	relation	IC50 / nM
COc1cc2nn([C@H]3CCC[C@@](C)(O)C3)cc2cc1C(=O)Nc1cnn2cccnc12 (single isomer, unassigned) [Example 51]	=	2.8
CO[C@H]1C[C@H](Oc2cc3nn(C4CCC5(CC4)CN(C(C)=O)C5)cc3cc2C(=O)Nc2cnc3cccnn23)C1 [Example 100]	<	0.03
COc1cc2nn([C@H]3CCC[C@H](O)[C@@H]3C)cc2cc1C(=O)Nc1cnc2cccnn12 (relative stereo) [Example 107]	=	0.9
O=C(Nc1cnn2cccnc12)c1cc2cn([C@H]3CCC[C@@H](O)C3)nc2cc1OC1CC1 [Example 18]	<	0.6
COc1cc2nn([C@H]3CC[C@H](N(C)C(=O)C(C)(C)O)CC3)cc2cc1C(=O)Nc1cnn2cnccc12 [Example 99]	=	1.2
